System: UGT enzymes of human liver microsomes
Experiment: Inhibition of raloxifene glucuronidation (G1, G2) in human liver microsomes
Format: biochemical
Settings: liver lot 062101; inhibitor 50 μM
Excerpt: Compounds were eluted using a binary solvent gradient system. […] Solvent B was methanol. […] Detection was at 280 nm.
endpoint: % of control metabolism, raloxifene G2

Below are worked cases with known answers.
O=c1c(O)c(-c2ccc(O)c(O)c2)oc2cc(O)cc(O)c12 = 35 (3) %
O=C(O)c1cc(-c2ccc(F)cc2F)ccc1O [Diflunisal, reference compound] = 57 (2) %
CCCCCCCCOC(=O)c1cc(O)c(O)c(O)c1 [Octyl gallate] = 45 (6) %
O=C(O[C@@H]1Cc2c(O)cc(O)cc2O[C@H]1c1cc(O)c(O)c(O)c1)c1cc(O)c(O)c(O)c1 [Gallocatechin gallate] = 22 (1) %
O=C(O[C@@H]1Cc2c(O)cc(O)cc2O[C@@H]1c1cc(O)c(O)c(O)c1)c1cc(O)c(O)c(O)c1 [Epigallocatechin gallate] = 41 (2) %

Any idea what % of control metabolism, raloxifene G2 was measured for O=C(O[C@@H]1Cc2c(O)cc(O)cc2O[C@@H]1c1ccc(O)c(O)c1)c1cc(O)c(O)c(O)c1 [Epicatechin gallate] ? 37 (2) %

====

Target: UGT1A10 (Homo sapiens)
Sequence (Q9HAW8 26-530): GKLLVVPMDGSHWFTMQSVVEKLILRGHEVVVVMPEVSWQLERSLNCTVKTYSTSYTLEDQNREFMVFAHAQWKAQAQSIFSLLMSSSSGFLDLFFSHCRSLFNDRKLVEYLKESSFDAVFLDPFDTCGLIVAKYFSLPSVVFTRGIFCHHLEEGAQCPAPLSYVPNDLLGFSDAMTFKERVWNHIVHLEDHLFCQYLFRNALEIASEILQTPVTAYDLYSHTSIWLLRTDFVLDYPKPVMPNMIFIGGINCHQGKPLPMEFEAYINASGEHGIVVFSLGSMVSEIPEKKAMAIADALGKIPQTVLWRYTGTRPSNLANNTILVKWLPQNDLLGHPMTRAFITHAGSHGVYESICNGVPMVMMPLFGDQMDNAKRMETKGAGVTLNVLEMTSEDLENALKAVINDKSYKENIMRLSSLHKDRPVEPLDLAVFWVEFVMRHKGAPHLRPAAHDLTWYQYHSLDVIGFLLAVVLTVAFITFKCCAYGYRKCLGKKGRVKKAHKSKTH
Assay: Inhibition of raloxifene glucuronidation by recombinant UGT1A10 Bacculosomes
Conditions: human, Bacculosomes with recombinant human UGT1A10, pH 7.5, % of control metabolism, raloxifene glucuronide (one value printed, G1 or G2 not stated), UGT1A10; inhibitor 10 μM
endpoint: activity at 15 min, 10 µM (%)
Reply numerically in %, unit not repeated.

Query (molecule): CC/C(=C(/CC)c1ccc(O)cc1)c1ccc(O)cc1 [Diethylstilbestrol, reference compound] ; field requested: activity at 15 min, 10 µM 70

====

Molecular target: UGT1A9 (Homo sapiens)
Sequence (O60656 26-530): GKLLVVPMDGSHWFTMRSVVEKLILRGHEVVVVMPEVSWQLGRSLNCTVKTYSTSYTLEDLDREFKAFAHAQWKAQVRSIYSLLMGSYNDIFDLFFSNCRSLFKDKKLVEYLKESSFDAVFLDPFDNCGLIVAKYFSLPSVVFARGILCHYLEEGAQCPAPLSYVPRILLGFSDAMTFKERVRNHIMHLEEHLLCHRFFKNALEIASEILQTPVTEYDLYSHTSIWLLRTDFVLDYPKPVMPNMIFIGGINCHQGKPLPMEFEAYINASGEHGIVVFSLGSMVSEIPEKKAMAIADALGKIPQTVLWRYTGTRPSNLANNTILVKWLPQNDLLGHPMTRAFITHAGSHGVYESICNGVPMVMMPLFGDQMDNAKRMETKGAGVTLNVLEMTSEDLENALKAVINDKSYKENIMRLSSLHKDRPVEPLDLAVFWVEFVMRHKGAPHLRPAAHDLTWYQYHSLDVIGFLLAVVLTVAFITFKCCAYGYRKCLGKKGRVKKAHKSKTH
Assay: Inhibition of raloxifene glucuronidation by recombinant UGT1A9 Supersomes
Details: human, Supersomes with recombinant human UGT1A9, pH 7.5, probe raloxifene 50 μM, formation of glucuronide G1, % of control metabolism, raloxifene G1, UGT1A9; inhibitor 25 μM
endpoint: activity at 15 min, 25 µM

Take a look at these entries with their results.
O=C(O[C@@H]1Cc2c(O)cc(O)cc2O[C@H]1c1cc(O)c(O)c(O)c1)c1cc(O)c(O)c(O)c1 [Gallocatechin gallate] = 72%
O=C(OC[C@H]1O[C@@H](OC(=O)c2cc(O)c(O)c(OC(=O)c3cc(O)c(O)c(O)c3)c2)[C@H](OC(=O)c2cc(O)c(O)c(OC(=O)c3cc(O)c(O)c(O)c3)c2)[C@@H](OC(=O)c2cc(O)c(O)c(OC(=O)c3cc(O)c(O)c(O)c3)c2)[C@@H]1OC(=O)c1cc(O)c(O)c(OC(=O)c2cc(O)c(O)c(O)c2)c1)c1cc(O)c(O)c(OC(=O)c2cc(O)c(O)c(O)c2)c1 = 21%
O=c1c(O)c(-c2ccc(O)c(O)c2)oc2cc(O)cc(O)c12 = 45%

Attention now shifts to the item below.
Fill in: activity at 15 min, 25 µM of CC/C(=C(/CC)c1ccc(O)cc1)c1ccc(O)cc1 [Diethylstilbestrol, reference compound] is ___ 49%

====

Biological target: UGT1A8 (Homo sapiens)
Sequence (Q9HAW9 26-530): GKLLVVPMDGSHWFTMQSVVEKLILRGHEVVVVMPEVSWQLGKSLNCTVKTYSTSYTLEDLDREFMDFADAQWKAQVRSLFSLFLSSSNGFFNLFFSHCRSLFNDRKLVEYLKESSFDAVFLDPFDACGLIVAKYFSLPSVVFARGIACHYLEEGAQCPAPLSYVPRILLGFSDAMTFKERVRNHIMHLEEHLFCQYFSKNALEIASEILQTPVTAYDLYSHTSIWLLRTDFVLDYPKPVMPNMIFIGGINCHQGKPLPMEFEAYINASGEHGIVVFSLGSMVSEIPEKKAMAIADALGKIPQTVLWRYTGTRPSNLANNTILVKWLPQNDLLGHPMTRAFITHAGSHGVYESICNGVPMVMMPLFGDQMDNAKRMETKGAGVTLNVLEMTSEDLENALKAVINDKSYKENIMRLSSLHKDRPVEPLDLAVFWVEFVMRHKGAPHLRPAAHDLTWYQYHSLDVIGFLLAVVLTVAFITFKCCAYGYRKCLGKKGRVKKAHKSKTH
Test: Inhibition of raloxifene glucuronidation by recombinant UGT1A8 Supersomes
Conditions: human, Supersomes with recombinant human UGT1A8, pH 7.5, probe raloxifene 50 μM, formation of glucuronide G2, % of control metabolism, raloxifene G2, UGT1A8; inhibitor 10 μM
Consider the following compounds and their measured activity at 15 min, 10 µM readings.
Express your answer in %, writing the number without its unit.

CC/C(=C(/CC)c1ccc(O)cc1)c1ccc(O)cc1 [Diethylstilbestrol, reference compound] = 73

Moving on to another compound below.
For `O=C(OC[C@H]1O[C@@H](OC(=O)c2cc(O)c(O)c(OC(=O)c3cc(O)c(O)c(O)c3)c2)[C@H](OC(=O)c2cc(O)c(O)c(OC(=O)c3cc(O)c(O)c(O)c3)c2)[C@@H](OC(=O)c2cc(O)c(O)c(OC(=O)c3cc(O)c(O)c(O)c3)c2)[C@@H]1OC(=O)c1cc(O)c(O)c(OC(=O)c2cc(O)c(O)c(O)c2)c1)c1cc(O)c(O)c(OC(=O)c2cc(O)c(O)c(O)c2)c1` , what is its reported activity at 15 min, 10 µM? 75
